Cited source for all entries: patent US20230374132A1

- Subject Of Test: T1, cynomolgus monkey CD3 E&D complex protein (Sino Biological Inc., CT032-00323H) (cynomolgus monkey, UniProt Q95LI5 22-117; Q95LI8 22-105)
- T1 construct: bought heterodimer
- Assay Procedure: BLI, antibody on sensor
Measurement Type: pKd
One number for each entry, as −log10 of the molar value.

binder="hzsp34.38 (antibody, human IgG1, kappa, L234A L235A, V domains shown, IgG1 L234A L235A, kappa) VH: EVQLVESGGGLVQPGGSLKLSCAASGFTFNTYAMNWVRQASGKGLEWVGRIRSKYNNYATYYADSVKDRFTISRDDSKSTLYLQMNSLKTEDTAVYYCARHGNFGNSYVSWFAYWGQGTTVTVSS VL: EIVMTQSPATLSVSPGERATLSCRSSTGAVTTSNYANWVQQKPGQAPRGLIGGTNKRAPGVPARFSGSGSGTEFTLTISSLQSEDFAVYYCALWYSNLWVFGQGTKLTVLR" measurement_type=pKd reported=8.20
binder="sp34 (antibody, human IgG1, lambda, L234A L235A, V domains shown, mouse variable regions on human IgG1 L234A L235A and lambda constant regions; also called chimeric antibody sp34; mouse sp34) VH: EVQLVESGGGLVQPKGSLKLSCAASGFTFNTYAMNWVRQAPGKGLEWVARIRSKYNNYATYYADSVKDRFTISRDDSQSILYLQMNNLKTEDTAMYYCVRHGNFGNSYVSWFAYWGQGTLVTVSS VL: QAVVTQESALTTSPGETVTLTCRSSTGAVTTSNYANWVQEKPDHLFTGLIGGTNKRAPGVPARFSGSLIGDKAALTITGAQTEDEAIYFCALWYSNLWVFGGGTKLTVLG" measurement_type=pKd reported=9.19

Turning now to a further record.
Reported pKd of hzsp34.22 (antibody, human IgG1, lambda, L234A L235A, V domains shown, IgG1 L234A L235A, lambda) VH: EVQLVESGGGLVQPGGSLKLSCAASGFTFNTYAMNWVRQASGKGLEWVGRIRSKYNNYATYYADSVKDRFTISRDDSKNTLYLQMNSLKTEDTAVYYCARHGNFGNSYVSWFAYWGQGTTVTVSS VL: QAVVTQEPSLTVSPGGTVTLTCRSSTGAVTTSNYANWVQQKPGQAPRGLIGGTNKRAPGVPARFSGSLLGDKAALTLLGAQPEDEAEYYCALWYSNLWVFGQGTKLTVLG : 9.23
